The measured values listed here are drawn from patent US11414385B2.

system: T. gondii bradyzoites (EGS strain); assay: EGS strain bradyzoite assay (cysts in HFF, dolichos/BAG1 staining); assay type: cell-based, Toxoplasma gondii; settings: Toxoplasma gondii; EGS strain; read-out: T. gondii Bradyzoite IC50
pIC50: −log10 of the molar value.
In this section we review reported pIC50 values for a set of compounds.
REPORTED PROPERTY: pIC50

COMPOUND	TARGET DESC	REPORTED PROPERTY	QUANTITATIVE RESULT
Cc1[nH]c2c(c(=O)c1-c1ccc(Oc3ccccc3)cc1)CCCC2	T. gondii bradyzoites (EGS strain)	pIC50	5.40
Cc1[nH]c2ccccc2c(=O)c1-c1ccc(Oc2ccc(OC(F)(F)F)cc2)cc1 [ELQ 271, reference compound]	T. gondii bradyzoites (EGS strain)	pIC50	6.00

* * *

system: MDR1; assay: in vitro; format: in vitro ADME; settings: dog, MDCK-MDR1, MDCK-MDR1 Efflux Ratio
Parameter: efflux ratio. Scope: all listed entries.

COMPOUND	efflux ratio
Cc1[nH]c2c(c(=O)c1-c1ccc(Oc3ccc(OC(F)(F)F)cc3)cc1)CCCC2 [JAG21]	< 1.5
Cc1[nH]c2c(c(=O)c1-c1ccc(Oc3ccc(Cl)cc3)cc1)CCCC2 [JAG050]	< 1.5
Cc1[nH]c2c(c(=O)c1-c1ccc(Oc3ccccc3)cc1)CCCC2 [MJM170]	< 1.5

* * *

test system: P. falciparum strains D6, TM91-C235, W2, C2B; assay: Malaria SYBR Green I-Based Fluorescence (MSF) Assay; type: cell-based, Plasmodium falciparum; conditions: Plasmodium falciparum, including all drug resistant strains; read-out: inhibitor of Plasmodium falciparum
pIC50: −log10 of the molar value.

COMPOUND	pIC50
Cc1[nH]c2c(c(=O)c1-c1ccc(Oc3ccc(OC(F)(F)F)cc3)cc1)CCCC2 [JAG21]	7.19 to 7.40

* * *

assay: Microsomal metabolic stability, mouse; format: in vitro ADME; details: mouse, liver microsomes; read-out: Mouse liver microsomes T1/2

RECORD SMILES	half-life, min
Cc1[nH]c2c(c(=O)c1-c1ccc(Oc3ccccc3)cc1)CCCC2	21

* * *

Catalogue of molecules with associated half-life
assay: Microsomal metabolic stability, mouse; type: in vitro ADME; details: mouse, liver microsomes; read-out: Mouse microsomal stability T1/2
REPORTED PROPERTY: half-life (min)

MOLECULE	UNIT TAG	VALUE RELATION SIGN	QUANTITATIVE RESULT
Cc1[nH]c2c(c(=O)c1-c1ccc(Oc3ccccc3)cc1)CCCC2	min	=	20
Cc1[nH]c2ccccc2c(=O)c1-c1ccc(Oc2ccc(OC(F)(F)F)cc2)cc1 [ELQ 271, reference compound]	min	>	200

* * *

Each entry below lists one item and its recorded solubility value.
experiment: Aqueous kinetic solubility pH 7.4; type: physicochemical; conditions: aqueous buffer, kinetic from dmso stock; 100 mM Phosphate Buffer (pH 7.4)
REPORTED PROPERTY: solubility (µM)

MOLECULE	REPORTED PROPERTY	QUANTITATIVE RESULT
Cc1[nH]c2c(c(=O)c1-c1ccc(Oc3ccccc3)cc1)CCCC2	solubility	1.97
Cc1[nH]c2ccccc2c(=O)c1-c1ccc(Oc2ccc(OC(F)(F)F)cc2)cc1 [ELQ271, reference compound]	solubility	0.15

* * *

experiment: FaSSIF solubility pH 6.5; type: physicochemical; conditions: FaSSIF, pH 6.5, fassif

RECORD SMILES	solubility (µM)
Cc1[nH]c2c(c(=O)c1-c1ccc(Oc3ccccc3)cc1)CCCC2	9.8
